Target: Casein kinase II subunit alpha (Homo sapiens, UniProt P68400)
Sequence (P68400 whole entry, the tested form may be a part): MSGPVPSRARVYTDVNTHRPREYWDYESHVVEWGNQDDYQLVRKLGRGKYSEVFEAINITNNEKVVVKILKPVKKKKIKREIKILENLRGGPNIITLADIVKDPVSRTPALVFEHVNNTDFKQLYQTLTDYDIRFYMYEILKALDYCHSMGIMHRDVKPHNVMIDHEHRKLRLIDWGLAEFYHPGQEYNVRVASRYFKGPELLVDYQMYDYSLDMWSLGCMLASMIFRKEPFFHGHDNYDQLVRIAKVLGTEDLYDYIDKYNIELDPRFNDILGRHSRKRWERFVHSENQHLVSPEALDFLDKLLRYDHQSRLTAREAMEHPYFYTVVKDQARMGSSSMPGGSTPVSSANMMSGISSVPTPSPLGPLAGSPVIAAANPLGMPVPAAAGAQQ
Assay: Inhibition of N-terminal GST-fusion protein tagged full length human CK2alpha1 (1 to 391 residues) expressed in baculovirus expression system co-expressing human His-tagged CK2beta using CK2tide as substrate incubated for 1 hrs in presence of ATP by off-chip mobility shift assay
pIC50: −log10 of the molar value.
resultType: pIC50

[[record]]
smilestext = "NC(=O)c1nc(-c2cccc(C(=O)O)c2)nc2c1[nH]c(=O)n2-c1ccc(Cl)cc1"
system = "Casein kinase II subunit alpha (Homo sapiens, UniProt P68400)"
val = 5.27


1: COc1cccc(-n2c(=O)[nH]c3c(C(N)=O)nc(-c4cccc(C(=O)O)c4)nc32)c1
2: N#Cc1ccc(-n2c(=O)[nH]c3c(C(N)=O)nc(-c4cccc(C(=O)O)c4)nc32)cc1
Q) When their pIC50 values are compared, which is larger, 1 or 2 ? // caller expects the label of the chosen entry
A) 2
(2: 6.40, 1: 5.72)
